- Tested on: Escherichia coli TOP10;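 further: peptides expressed intracellularly from a pBAD plasmid library in pooled LB shake-flask culture, induced with 0.3% L-arabinose, DNA abundance read by NGS, three biological replicates, DESeq2 with apeglm shrinkage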
- ASSAY PROCEDURE: shrunken log2 fold change of peptide-encoding DNA abundance (4.5 h post-induction vs induction); higher = less antimicrobial activity (less host growth inhibition)
- REPORTED CONDITIONS: time post-induction: 4.5 h; library: site-saturation at positions 5, 18, 19, 20
Each entry belongs to exactly one class, chosen by where its shrunken log2 fold change falls: lower level = under -0.09, middle level = from -0.09 up to 0.04, upper level = 0.04 and over

Input `RRIRGRPPRLPRPRPRPWNEPRP` ; output its category lower level

Hi, small favor: classify `RRIRYRPPRLPRPRPRPPPEPRP` by its shrunken log2 fold change when you get a moment. upper level

Sort into band: `RRIRCRPPRLPRPRPRPEYAPRP` upper level

Form field 'band' for `RRIRHRPPRLPRPRPRPCYAPRP` lower level

Into which category would you place `RRIRLRPPRLPRPRPRPEPVPRP` ? upper level

Band assignment needed for `RRIRIRPPRLPRPRPRPKPSPRP` please. upper level

Band of `RRIRDRPPRLPRPRPRPQGRPRP` ? middle level

Lab note: which band did `RRIRSRPPRLPRPRPRPHLQPRP` land in? upper level

Assign a bin to `RRIRGRPPRLPRPRPRPDCWPRP` upper level

# bin label for `RRIRRRPPRLPRPRPRPATYPRP` middle level

For `RRIRGRPPRLPRPRPRPFVMPRP` , which shrunken log2 fold change bin applies? middle level

Where would `RRIRGRPPRLPRPRPRPLMLPRP` land among the classes by reported shrunken log2 fold change? upper level

# bin label for `RRIRARPPRLPRPRPRPSMPPRP` lower level

Textbook exercise: identify the category of the sequence given here, `RRIRYRPPRLPRPRPRPPHGPRP` , according to its measured value. middle level

Category of `RRIRGRPPRLPRPRPRPSEWPRP` : upper level

Categorize the following entry: `RRIRLRPPRLPRPRPRPQAGPRP` middle level

Input `RRIRKRPPRLPRPRPRPHCVPRP` ; output its category middle level

Sort `RRIRPRPPRLPRPRPRPFSPPRP` into one of the categories. lower level

Which class holds `RRIRGRPPRLPRPRPRPFAQPRP` ? upper level

Sort `RRIRIRPPRLPRPRPRPYIDPRP` into one of the categories. lower level

# bin lookup: classify `RRIRGRPPRLPRPRPRPLRQPRP` by its shrunken log2 fold change upper level

Just checking, what class would you give `RRIRQRPPRLPRPRPRPMNEPRP` here? middle level

Into which category would you place `RRIRKRPPRLPRPRPRPCFDPRP` ? middle level

Lab note: which band did `RRIRCRPPRLPRPRPRPMSWPRP` land in? lower level

Hey, which category is `RRIRRRPPRLPRPRPRPRILPRP` in, do you know? lower level

For the record `RRIRDRPPRLPRPRPRPNNCPRP` , report the class its shrunken log2 fold change corresponds to. lower level

Class? Entry: `RRIRHRPPRLPRPRPRPFVEPRP` lower level

For this sequence, which bin applies? `RRIRHRPPRLPRPRPRPDRFPRP` middle level

# bin lookup: classify `RRIRWRPPRLPRPRPRPDYIPRP` by its shrunken log2 fold change middle level

Band of `RRIRSRPPRLPRPRPRPWHTPRP` ? lower level
